These data points were gathered from patent US12018023B2.

Each record here notes measured pIC50.
Measurement Target: IDH1^R132H homodimer enzyme (Homo sapiens, UniProt O75874, R132H)
Construct: purchased not specified
Sequence (O75874 whole entry R132H): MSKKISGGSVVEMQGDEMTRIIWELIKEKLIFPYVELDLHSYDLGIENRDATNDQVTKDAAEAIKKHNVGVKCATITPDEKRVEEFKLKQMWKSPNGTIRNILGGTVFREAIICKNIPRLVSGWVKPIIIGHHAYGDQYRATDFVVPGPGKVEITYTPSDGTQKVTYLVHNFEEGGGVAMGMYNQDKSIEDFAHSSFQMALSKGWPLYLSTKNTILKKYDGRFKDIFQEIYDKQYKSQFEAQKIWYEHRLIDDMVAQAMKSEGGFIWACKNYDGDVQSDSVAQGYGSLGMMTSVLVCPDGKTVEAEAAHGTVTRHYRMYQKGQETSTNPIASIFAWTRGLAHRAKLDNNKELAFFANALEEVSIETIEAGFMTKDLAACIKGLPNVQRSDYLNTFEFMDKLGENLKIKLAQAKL
Protocol: NADPH depletion assay, IDH1 R132H
Assay type: biochemical
Method: IDH mutated enzyme activity converting alpha-ketoglutarate to 2-hydroxyglutaric acid is measured using a NADPH depletion assay. In the assay the remaining cofactor is measured at the end of the reaction with the addition of a catalytic excess of diaphorase and resazurin, to generate a fluorescent signal in proportion to the amount of NADPH remaining. […]
Quick note: pIC50 means taking -log10 of the concentration in moles per liter.

For orientation, consider the following solved cases.
Task: I'd like to know its pIC50. The molecule in question is COc1ccc([C@H](C)Nc2ncc3ccc(=O)n(CC(C)(C)C)c3n2)cc1
Output: 6.34

Task: I'd like to know its pIC50. The molecule in question is C[C@H](Nc1ncc2ccc(=O)n(CC(C)(C)C)c2n1)c1ccc(-c2ccsc2)cc1
Output: 6.66

Task: If you can, please state the reported pIC50 value of C=CC(=O)N1CCN([C@H](CC)c2ccc(C3(Nc4ncc5ccc(=O)n(C(C)C)c5n4)CC3)cc2)CC1 (single isomer, unassigned) .
Output: 8.40

Task: Requested read-out: pIC50. Entry: C[C@H](Nc1ncc2ccc(=O)n(CC(C)(C)C)c2n1)c1cc2cc(Cl)ccc2[nH]c1=O
Output: 7.17

Task: Please give the measured pIC50 for this molecule: C[C@H](Nc1ncc2ccc(=O)n(CC(C)(C)C)c2n1)c1ccc(CN2CC(F)(F)C2)cc1
Output: 6.33

Task: For the molecule CC(C)[C@H](C)n1c(=O)ccc2cnc(N[C@@H](C)c3ccc(CN4CCN(C)C(=O)C4)cc3)nc21 , what pIC50 is on record?
Output: 6.48

Task: Entry COC(=O)c1ccc([C@H](C)Nc2ncc3ccc(=O)n(CC(C)C)c3n2)cc1 : reported pIC50 = ?
Output: 5.95

Task: Name the recorded pIC50 for C[C@H](Nc1ncc2ccc(=O)n(CC(C)(C)C)c2n1)c1ccc(CN2CCCC(F)(F)C2)cc1 .
Output: 7.26

***
Task: What value of pIC50 has been reported for the following molecule? C=CC(=O)N1CCN(C(=O)c2ccc([C@H](C)Nc3ncc4ccc(=O)n([C@@H](C)C(C)C)c4n3)cc2F)CC1
Output: 7.15

Task: Item C[C@H](Nc1ncc2ccc(=O)n(CC(C)(C)CO)c2n1)c1ccc(-c2ccsc2)cc1 has what recorded pIC50?
Output: 6.91

Task: # lookup: pIC50 of CC(C)[C@H](C)n1c(=O)ccc2cnc(N[C@@H](C)c3cc4cc(Cl)ccc4[nH]c3=O)nc21
Output: 6.75

Task: Which pIC50 value is on record for C=CC(=O)N1CCN(Cc2ccc([C@H](C)Nc3ncc4ccc(=O)n([C@@H](C)CO)c4n3)cc2)CC1 ?
Output: 5.85

Task: Fill blank: measured pIC50 of the molecule C[C@H](Nc1ncc2ccc(=O)n(Cc3c(F)cccc3F)c2n1)c1ccc(Cl)cc1 is ____.
Output: 6.49
